Parameter: inhibition. Scope: all listed entries.
Target: Pantothenate synthetase (Mycobacterium tuberculosis (strain ATCC 25618 / H37Rv))
Assay: Coupled enzyme confirmation of inhibitors against recombinant Mtb PanC (AID 375);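 note: 0% = full reaction with vehicle and 100% = no enzyme background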
Conditions: coupled enzyme assay; at 10 µM, active compounds read high
Report only the number, with the unit % understood.

Example cases with answers are listed next.
* CN1CCN(CCCNC(=O)Cn2ncc3c4ccccc4n(C)c3c2=O)CC1 | 0
* CCOC(=O)c1c(C)c(C(=O)NCC2CCCO2)c(C)n1C (configuration not stated) | 7
* CCOc1ccc(C2C(C(=O)OC)=CN(CCOC)C=C2C(=O)OC)cc1 | 4
* Cc1nnc2c3ccccc3c(-c3ccccc3)nn12 | 0
* CC(=O)c1ccc(OCC(O)CN2CCN(Cc3ccc4c(c3)OCO4)CC2)cc1 (configuration not stated) | 3
* CCOC(=O)N1CCN(S(=O)(=O)c2cc(C)c(C)cc2C)CC1 | 0
* C[C@H](NC(=O)Nc1cccc(C(F)(F)F)c1)C(=O)O | 0
* Cc1cc2ccccn2c1C(=O)c1ccncc1 | 5

Give inhibition for Cc1c(Cc2ccccc2)sc(N)c1C(N)=O
0

Give inhibition for CC(C)(C)c1ccc(-c2nnc(SCCC#N)n2C2CCCC2)cc1
0

Give inhibition for CCOC(=O)CNC(=O)Cn1cnc2c(nnn2-c2cccc(Cl)c2)c1=O
0

Give inhibition for COc1cc(CN(C)CC(=O)c2[nH]c(C)c(C(C)=O)c2C)ccc1OC(F)F
0

Give inhibition for c1ccc(OCCCn2nnc(-c3ccncc3)n2)cc1
3

Give inhibition for CC(=O)c1cccc(NC(=O)c2ccc(NS(C)(=O)=O)cc2)c1
1

Give inhibition for O=C(C1CCN(C2CC(=O)N(c3ccc(F)cc3)C2=O)CC1)N1CCOCC1 (configuration not stated)
0
